Would you kindly list recombinant barcode read abundance (log10) for each of these sequences?
# Experiment: recombinant barcode read abundance after kanamycin selection (control-corrected) (log10(CPM+1)); higher = more efficient recombination; sequences stand for … in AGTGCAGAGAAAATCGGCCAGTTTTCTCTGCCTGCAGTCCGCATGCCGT…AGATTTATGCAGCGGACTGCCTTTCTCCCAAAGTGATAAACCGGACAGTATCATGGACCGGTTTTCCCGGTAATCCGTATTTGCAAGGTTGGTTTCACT; site = the 11-nt target
Numbers only.

TAAGACGCTTGGGTTCTAACCTGTTGCCT (site TAGGACGCTAG) = 0.729
AATTGGACTTGGGTTCTAACCTGTTGCTT (site CATTGGACTAA) = 0.0957
CTCCGCCCTTGGGTTCTAACCTGTTGCCT (site CTCCGTCCTAC) = 0.0714
AGTCGGCCTTGGGTTCTAACCTGTTGCCT (site AGTCGGCCTAG) = 0.129
GTATGGTCTTGGGTTCTAACCTGTTGCGT (site GTATCGTCTAG) = 0.0442

Provide the reported recombinant barcode read abundance (log10) of each entry below, same order.
1. TGAGAGGCTTGGGTTCTAACCTGTTGCCT (site TGAGAGGCTAG)
2. CAAAAGGCTTGGGTTCTAACCTGTTGCCT (site CAAAAGGCTAG)
3. TGAGAACCTTGGGTTCTAACCTGTTGCCT (site CGAGAACCTAG)
4. AAACGACCTTGGGTTCTAACCTGTTGCCT (site CAACGACCTAG)
5. CGAGGGGCTTGGGTTCTAACCTGTTGCCT (site CGAGGGCCTAG)

OUT:
1: 0.718; 2: 0.0565; 3: 0.486; 4: 0.291; 5: 0.0526

Provide the reported recombinant barcode read abundance (log10) of each entry below, same order.
1. GGGCTTACTTGGGTTCTAACCTGTTGCCT (site GTGCTTACTAG)
2. ATAAAAGCTTGGGTTCTAACCTGTTGCCT (site ATAAAAGCTAG)
3. TAGCTGACTTGGGTTCTAACCTGTTGCCT (site TAGCAGACTAG)
4. GGGTCCACTTGGGTTCTAACCTGTTGCAT (site GGGTCCACTAG)
5. AGTCGGCCTTGGGTTCTAACCTGTTGCCT (site ATTCGGCCTAG)

OUT:
1: 0.325; 2: 1.5; 3: 1.14; 4: 0.699; 5: 0.228

Provide the reported recombinant barcode read abundance (log10) of each entry below, same order.
1. AGCGTCGCTTGGGTTCTAACCTGTTGCCT (site TGCGTCGCTAG)
2. TCTTAGGCTTGGGTTCTAACCTGTTGCGT (site TCCTAGGCTGC)

OUT:
0.16
0.21

* * *

# Experiment: recombinant UMI read abundance after kanamycin selection (control-corrected) (log10(CPM+1)); higher = more efficient recombination; extreme values may be limits of the assay; sequences stand for … in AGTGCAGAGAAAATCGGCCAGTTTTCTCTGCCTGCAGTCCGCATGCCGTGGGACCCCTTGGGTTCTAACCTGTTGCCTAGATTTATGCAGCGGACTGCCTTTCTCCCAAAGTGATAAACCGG…AGGTTGGTTTCACT; site = the 11-nt donor
Lab note: compare recombinant UMI read abundance (log10) against 0.02. Equal or greater, write 1.0. Smaller, write 0.0.

TGGAAGACATGGACCGGTTTTCCCGGTAATCCGTATTTGCA (site GGGAAGACTTG) = 0.0
CCCGGTCCATGGACCGGTTTTCCCGGTAATCCGTATTTGTA (site CCCGGTCCTTG) = 0.0
CAATTGGCATGGACCGGTTTTCCCGGTAATCCGTATTTGGA (site CAGTTGGCTTC) = 1.0
CCATTAGCATGGACCGGTTTTCCCGGTAATCCGTATTTGTG (site CCCTTAGCTCA) = 0.0
AGAAAGCCATGGACCGGTTTTCCCGGTAATCCGTATTTGCT (site AGAAAGGCTAG) = 0.0
GGTACGTCATGGACCGGTTTTCCCGGTAATCCGTATTTGGT (site GGTACGTCTAC) = 1.0
CACCGTTCATGGACCGGTTTTCCCGGTAATCCGTATTTGTG (site CACCGTTCTCA) = 1.0
AACCGCCCATGGACCGGTTTTCCCGGTAATCCGTATTTGAT (site AACCGACCTAT) = 0.0

IN: Would you say GGGGTGGCATGGACCGGTTTTCCCGGTAATCCGTATTTGGT (site GGGGTGGCTAC) shows recombinant UMI read abundance (log10) at minimum 0.02?
OUT: 1.0

IN: Would you say ATGAGGCCATGGACCGGTTTTCCCGGTAATCCGTATTTGAC (site ATTAGGCCTGT) shows recombinant UMI read abundance (log10) at minimum 0.02?
OUT: 0.0

IN: Would you say CGTGTGGCATGGACCGGTTTTCCCGGTAATCCGTATTTGCT (site CGTCTGGCTAG) shows recombinant UMI read abundance (log10) at minimum 0.02?
OUT: 0.0
